The reported numbers originate from paper PMC5344255.

System: MCF-7 human breast cancer cells
assay.notes: MTT assay for antiproliferative effects in MCF-7
Assay type: cell-based
protocol.conditions: Homo sapiens, MCF7, MCF-7, MTT assay; mean of at least three experiments in triplicate
Procedure: The human breast carcinoma cell line, MCF-7, was purchased from the European Collection of Animal Cell Cultures (ECACC). The cells were maintained in MCF-7 complete medium; consisting of Eagle’s Minimum Essential Medium (MEM) supplemented with 10% (v/v) Foetal Bovine Serum (FBS), 2 mM L-glutamine, 100 μg/mL penicillin/streptomycin and 1% (v/v) non-essential amino acids. Cell cultures were maintained at 37 °C under a humidified atmosphere of 5% CO2/95% O2. […]
result.type: pIC50
// scale note: pIC50 = -log10(conc_M); give the bare number

Qu. Note pIC50 for the molecule shown: CCC(=C(c1ccc(O)cc1)c1ccc(OCCN(C)C(=O)/C(=C/c2ccc(OC)c(N)c2)c2cc(OC)c(OC)c(OC)c2)cc1)c1ccccc1 (mixture of isomers)
Ans. 6.02

Qu. Give recorded pIC50. CCC(=C(c1ccc(O)cc1)c1ccc(OCCN(C)C(=O)/C(=C/c2ccc(OC)c(F)c2)c2cc(OC)c(OC)c(OC)c2)cc1)c1ccccc1 (mixture of isomers)
Ans. 6.74

Continuing:
Qu. Please list pIC50 recorded for the molecule CCC(=C(c1ccc(O)cc1)c1ccc(OCCN(C)C(=O)/C(=C/c2ccc(Br)cc2)c2cc(OC)c(OC)c(OC)c2)cc1)c1ccccc1 (mixture of isomers)
Ans. 5.99

Qu. Return pIC50 (reported value) for this molecule: CCC(=C(c1ccc(O)cc1)c1ccc(OCCN(C)C(=O)/C(=C/c2ccc3ccccc3c2)c2cc(OC)c(OC)c(OC)c2)cc1)c1ccccc1 (mixture of isomers)
Ans. 5.82

* * *

System: MDA-MB-231 human breast cancer cells
assay.notes: MTT assay for antiproliferative effects in MDA-MB-231
Assay type: cell-based
protocol.conditions: MDA-MB-231, MTT assay
result.type: IC50 (µM)
// units = µM; emit number, no label

Examples from the recorded data:
Qu. Specify IC50 for CCC(=C(c1ccc(O)cc1)c1ccc(OCCN(C)C(=O)/C(=C/c2ccc3c(c2)OCO3)c2ccc(OC)cc2)cc1)c1ccccc1 (mixture of isomers) and stop.
Ans. 5.23

Qu. Read the entry CCC(=C(c1ccc(O)cc1)c1ccc(OCCN(C)C(=O)/C(=C/c2ccc(OC)c(N)c2)c2cc(OC)c(OC)c(OC)c2)cc1)c1ccccc1 (mixture of isomers) and write its reported IC50.
Ans. 7.11

Qu. Tell us which IC50 value is on record for CCC(=C(c1ccc(O)cc1)c1ccc(OCCN(C)C(=O)/C(=C/c2ccc3ccccc3c2)c2cc(OC)c(OC)c(OC)c2)cc1)c1ccccc1 (mixture of isomers)
Ans. 2.16

Qu. Provide measured IC50 value, entry: CCC(=C(c1ccc(O)cc1)c1ccc(OCCN(C)C(=O)/C(=C/c2ccc(OC)c(N)c2)c2cc(OC)c(OC)c(OC)c2)cc1)c1ccc(O)cc1 (mixture of isomers)
Ans. 49.7

Qu. Recall and state the measured IC50 for CCC(=C(c1ccc(O)cc1)c1ccc(OCCN(C)C(=O)/C(=C/c2ccc(OC)c(O)c2)c2cc(OC)c(OC)c(OC)c2)cc1)c1ccccc1 (mixture of isomers) .
Ans. 2.67

Qu. Please give the documented IC50 of CCC(=C(c1ccc(O)cc1)c1ccc(OCCN(C)C(=O)/C(=C/c2cc(OC)c(OC)c(OC)c2)c2ccc(OC)cc2)cc1)c1ccccc1 (mixture of isomers)
Ans. 51

Qu. Output IC50 of CCC(=C(c1ccc(O)cc1)c1ccc(OCCN(C)C(=O)/C(=C/c2ccc(OC)c(F)c2)c2cc(OC)c(OC)c(OC)c2)cc1)c1ccccc1 (mixture of isomers)
Ans. 30.3

Qu. Could you please provide reported IC50 for CCC(=C(c1ccc(O)cc1)c1ccc(OCCN(C)C(=O)/C(=C/c2cc(OC)c(OC)c(OC)c2)c2ccc(OC)cc2)cc1)c1ccc(O)cc1 (mixture of isomers) ? Thanks!
Ans. 4.09

Consider the additional compound presented here.
Qu. Quick one: give measured IC50 for CCC(=C(c1ccc(O)cc1)c1ccc(OCCN(C)C(=O)/C(=C/c2ccc(OC)cc2)c2cc(OC)c(OC)c(OC)c2)cc1)c1ccccc1 (mixture of isomers)
Ans. 30.6

* * *

Tested on: MCF-7 human breast cancer cells
assay.notes: MTT assay for antiproliferative effects in MCF-7
Type: cell-based
protocol.conditions: Homo sapiens, MCF7, MCF-7, MTT assay; mean of at least three experiments in triplicate
Please use yes (1) for IC50 under 40 nM and no (0) for everything else, ties included.

Observe how each entry below is paired with its result.
Qu. Hello, is IC50 of the following compound strictly smaller than 40 nM? CCC(=C(c1ccc(O)cc1)c1ccc(OCCN(C)C(=O)/C(=C/c2ccc(OC)c(O)c2)c2cc(OC)c(OC)c(OC)c2)cc1)c1ccccc1 (mixture of isomers) [Compound 27]
Ans. yes (1)

Qu. IC50 strictly < 40 nM for this compound? CCC(=C(c1ccc(O)cc1)c1ccc(OCCN(C)C(=O)/C(=C/c2ccc(SC)cc2)c2cc(OC)c(OC)c(OC)c2)cc1)c1ccccc1 (mixture of isomers) [Compound 39]
Ans. no (0)

Qu. In plain terms, does COc1cc(/C(=C\c2ccc(C)cc2)C(=O)O)cc(OC)c1OC [Compound 19] come in under 40 nM for IC50?
Ans. no (0)

Qu. Dear reviewer, please state whether COc1ccc(/C=C\c2cc(OC)c(OC)c(OC)c2)cc1O [Compound 26, Combretastatin A-4, reference compound] has IC50 strictly beneath 40 nM.
Ans. yes (1)

Qu. Does this compound meet the criterion IC50 < 40 nM? CCC(=C(c1ccc(O)cc1)c1ccc(OCCN(C)C(=O)/C(=C/c2ccc(OC)cc2)c2cc(OC)c(OC)c(OC)c2)cc1)c1ccc(O)cc1 (mixture of isomers) [Compound 30]
Ans. no (0)

Qu. Problem: For the compound COc1cc(/C(=C\c2ccc3ccccc3c2)C(=O)O)cc(OC)c1OC [Compound 22] , is IC50 under 40 nM?
Ans. no (0)

Qu. Please determine if COc1ccc(/C(=C\c2cc(OC)c(OC)c(OC)c2)C(=O)O)cc1 [Compound 23] is below 40 nM in terms of IC50.
Ans. no (0)

Qu. Please let me know if COc1ccc(/C=C(/C(=O)N2CCCCC2)c2cc(OC)c(OC)c(OC)c2)cc1O [Compound 49] shows IC50 below 40 nM.
Ans. no (0)

More entries:
Qu. Please let me know if CCC(=C(c1ccc(O)cc1)c1ccc(OCCNC)cc1)c1ccc(O)cc1 [Compound 12] shows IC50 below 40 nM.
Ans. yes (1)

Qu. I'd appreciate it if you could check whether CCC(=C(c1ccc(O)cc1)c1ccc(OCCN(C)C(=O)/C(=C/c2ccc3ccccc3c2)c2cc(OC)c(OC)c(OC)c2)cc1)c1ccc(O)cc1 (mixture of isomers) [Compound 36] has IC50 smaller than 40 nM.
Ans. no (0)

Qu. Strictly below 40 nM in IC50? CCC(=C(c1ccc(O)cc1)c1ccc(OCCN(C)C(=O)/C(=C/c2ccc3c(c2)OCO3)c2ccc(OC)cc2)cc1)c1ccccc1 (mixture of isomers) [Compound 33]
Ans. no (0)

Qu. Threshold test, IC50 < 40 nM: COc1ccc(/C=C(/C(=O)O)c2cc(OC)c(OC)c(OC)c2)cc1O [Compound 13]
Ans. no (0)

* * *

Measured melting point, listed per entry for reference.

Qu. Give melting point for the following compound: COc1cc(/C(=C\c2ccc(SC)cc2)C(=O)O)cc(OC)c1OC [Compound 20]
Ans. 194 to 196 °C

Qu. Note melting point for the compound shown: COc1cc(/C(=C\c2ccc(F)cc2)C(=O)O)cc(OC)c1OC [Compound 18]
Ans. 211 to 213 °C

Qu. Please give the documented melting point of COc1cc(/C(=C\c2ccc3ccccc3c2)C(=O)O)cc(OC)c1OC [Compound 22]
Ans. 238 to 240 °C

Qu. Consider the compound COc1cc(/C(=C\c2ccc(C)cc2)C(=O)O)cc(OC)c1OC [Compound 19] . State its measured melting point.
Ans. 190 to 193 °C

Qu. State, in one line, measured melting point of COc1ccc(/C=C(/C(=O)O)c2cc(OC)c(OC)c(OC)c2)cc1N [Compound 16]
Ans. 199 to 202 °C

Qu. Please report melting point for the following compound: COc1ccc(/C(=C\c2cc(OC)c(OC)c(OC)c2)C(=O)N2CCCCC2)cc1 [Compound 47]
Ans. 106 to 108 °C

---
Qu. Supply reported melting point belonging to this compound: COc1cc(/C(=C\c2ccc(Br)cc2)C(=O)O)cc(OC)c1OC [Compound 17]
Ans. 227 to 230 °C

* * *

Each item that follows carries a reported IC50.
Tested on: MCF-7 human breast cancer cells
assay.notes: MTT assay for antiproliferative effects in MCF-7
Assay type: cell-based
protocol.conditions: Homo sapiens, MCF7, MCF-7, MTT assay; values in nM
Procedure: The human breast carcinoma cell line, MCF-7, was purchased from the European Collection of Animal Cell Cultures (ECACC). The cells were maintained in MCF-7 complete medium; consisting of Eagle’s Minimum Essential Medium (MEM) supplemented with 10% (v/v) Foetal Bovine Serum (FBS), 2 mM L-glutamine, 100 μg/mL penicillin/streptomycin and 1% (v/v) non-essential amino acids. Cell cultures were maintained at 37 °C under a humidified atmosphere of 5% CO2/95% O2. […]
Numbers only; they are read as nM.

Reference set, count: 5
Qu. Complete the entry with IC50 for CCC(=C(c1ccc(O)cc1)c1ccc(OCCN(C)C(=O)/C(=C/c2ccc3ccccc3c2)c2cc(OC)c(OC)c(OC)c2)cc1)c1ccc(O)cc1 (mixture of isomers)
Ans. 1.51

Qu. For the compound CCC(=C(c1ccc(O)cc1)c1ccc(OCCN(C)C(=O)/C(=C/c2ccc(C)cc2)c2cc(OC)c(OC)c(OC)c2)cc1)c1ccccc1 (mixture of isomers) , report IC50.
Ans. 3.62

Qu. Read off the recorded IC50 for CCC(=C(c1ccc(O)cc1)c1ccc(OCCNC)cc1)c1ccccc1 [Compound 11, reference compound]
Ans. 0.029

Qu. Answer with the recorded IC50 for the compound listed here: COc1ccc(/C=C\c2cc(OC)c(OC)c(OC)c2)cc1O [Compound 26, Combretastatin A-4, reference compound]
Ans. 8

Qu. Report measured IC50; entry is CCC(=C(c1ccc(O)cc1)c1ccc(OCCN(C)C(=O)/C(=C/c2ccc(OC)c(O)c2)c2cc(OC)c(OC)c(OC)c2)cc1)c1ccc(O)cc1 (mixture of isomers)
Ans. 0.005

***
Qu. Kindly indicate its recorded IC50. Item: CCC(=C(c1ccc(O)cc1)c1ccc(OCCN(C)C(=O)/C(=C/c2ccc(OC)c(O)c2)c2cc(OC)c(OC)c(OC)c2)cc1)c1ccccc1 (mixture of isomers)
Ans. 0.033
